Source: paper PMC8809517

Target: T1, GFP-9S library array, motif 4 ND N98E;D124I (synthetic construct, N98E;D124I)
T1 chain: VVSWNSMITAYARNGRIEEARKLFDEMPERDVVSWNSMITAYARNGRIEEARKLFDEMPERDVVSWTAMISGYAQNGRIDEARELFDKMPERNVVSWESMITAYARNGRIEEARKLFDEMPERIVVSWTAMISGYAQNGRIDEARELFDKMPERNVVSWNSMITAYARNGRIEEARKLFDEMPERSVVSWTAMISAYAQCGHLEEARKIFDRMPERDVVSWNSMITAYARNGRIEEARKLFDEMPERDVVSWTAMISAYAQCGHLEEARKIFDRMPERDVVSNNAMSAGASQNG
Experiment: high-throughput RNA pulldown from lysate on Ni-NTA beads; HRP: 50 mM Tris pH 8, 150 mM NaCl, 1 mM beta-mercaptoethanol, 50 ug/ml BSA, 3 ug/ml yeast RNA, 0.5% heparin; ITC and FP: Tris pH 8, 200 mM KCl, 5% glycerol; MST: 50 mM Tris pH 8, 200 mM NaCl, 1 mM DTT, BSA, heparin, 0.05% Tween 20
Settings: tags: N-terminal His-eGFP; label: 5' Cy5
Please respond with reported pKd for every item in the list.
Answers are plain numbers, as −log10 of the molar value.

Binder: AUUAGACGUGA (ssRNA) [Cy5-rpoA-G]
pKd: 5.41

Kindly consider the entry below.
Query: Assign pKd to the following record: AUUACACGUGA (ssRNA) [Cy5-rpoA]
Reply: 5.37
